From: patent US10800813

# target or system: T1, biotinylated human plasma Kallikrein (human, UniProt P03952 20-638, biotinylated)
# T1 construct: also called Biotinylated hPK
# T1 sequence (P03952 20-638 limits assumed): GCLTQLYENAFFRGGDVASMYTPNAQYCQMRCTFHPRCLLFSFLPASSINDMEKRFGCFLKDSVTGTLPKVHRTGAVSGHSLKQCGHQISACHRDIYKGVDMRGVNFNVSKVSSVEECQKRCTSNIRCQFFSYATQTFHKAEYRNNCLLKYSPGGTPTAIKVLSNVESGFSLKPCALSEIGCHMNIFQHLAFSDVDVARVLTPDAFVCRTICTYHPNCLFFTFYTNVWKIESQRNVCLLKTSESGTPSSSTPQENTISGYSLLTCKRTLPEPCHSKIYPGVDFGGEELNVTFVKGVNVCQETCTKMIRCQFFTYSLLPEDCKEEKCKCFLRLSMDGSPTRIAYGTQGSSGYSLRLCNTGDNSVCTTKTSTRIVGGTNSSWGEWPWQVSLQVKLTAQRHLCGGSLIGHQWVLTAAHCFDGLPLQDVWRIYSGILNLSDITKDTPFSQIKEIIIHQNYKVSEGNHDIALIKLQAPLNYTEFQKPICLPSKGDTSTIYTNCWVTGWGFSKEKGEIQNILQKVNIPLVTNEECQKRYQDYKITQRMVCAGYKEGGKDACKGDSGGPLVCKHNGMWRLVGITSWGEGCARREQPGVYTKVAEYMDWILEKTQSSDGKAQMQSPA
# assay summary: phage binding assay, signal:background
Numbered stars: 1 amine (or outer) side, 2 acyl side, 3 side chain; on linkers, the order of the positions; unused ones are H or OH. Bridge positions count the residues as written; N and C are the ends. Ends that are not written are not given here. TBMB = c1c(C[*:1])cc(C[*:3])cc1C[*:2]
Doc: threshold 70 (exclusive). Items with Binding assay signal beneath it return criterion met; others return criterion not met.

binder	cat
CEWPARCLHTDLC (linker 1-7-13 via TBMB (inferred)) [SEQ ID NO 156]	criterion met

Q) Lab note: confirm whether the reported Binding assay signal for this binder is below 70, equality not counting. binder: CSWPARCTHAEMC (linker 1-7-13 via TBMB (inferred)) [SEQ ID NO 158]
A) criterion met

Q) Lab note: confirm whether the reported Binding assay signal for this binder is below 70, equality not counting. binder: CAWPARCLHDDLC (linker 1-7-13 via TBMB (inferred)) [SEQ ID NO 125]
A) criterion not met

Q) Lab note: confirm whether the reported Binding assay signal for this binder is below 70, equality not counting. binder: CAWPARCTHADLC (linker 1-7-13 via TBMB (inferred)) [SEQ ID NO 130]
A) criterion not met

Q) Lab note: confirm whether the reported Binding assay signal for this binder is below 70, equality not counting. binder: CPWPARCTHQDLC (linker 1-7-13 via TBMB) [SEQ ID NO 117]
A) criterion not met
